Tested on: NCI-H522 lung
Assay: NCI-60 one-dose screen, 48 h
Conditions: 10 µM unless noted
About 83,000 compounds went through this panel and 20% of them were active in at least one assay; those are over-represented in the sample as a whole. Calls of active or inactive are those of the source. Rule for the calls: active = growth percent below 10; inactive = the rest.
Your reply should match one of these outcome classes. Yes for active, No for inactive

Request: State the result this test recorded for CCOC(=O)Cn1c(=O)c2c(c3ccccc3n2C)n2nnc(-c3ccccc3)c12 .
Response: No

Request: Which outcome did this test record for the compound COC(=O)Nc1ccc(-c2nc(-c3cccc(OC)c3)c(-c3ccnc(Br)c3)[nH]2)cc1 ?
Response: No

Request: Just curious, what result did Oc1ccc(C#CCOc2ccccc2)cc1CNCCN(Cc1ccccn1)Cc1ccccn1 get here?
Response: Yes

Request: Returns: the outcome recorded for O=C(/C=C/c1cccc2ccccc12)c1ccc(NC(=O)c2ccccc2CN2C(=O)c3ccccc3C2=O)cc1 in this assay.
Response: No

Request: Please state the recorded outcome for this compound: CC(C)OC(=O)Nc1ccc(-c2nc(-c3cccc(OCCN4CCOCC4)c3)c(-c3ccnc(Br)c3)[nH]2)cc1
Response: No

Request: For this compound, state the assay outcome: COc1ccc(N)c(N)c1
Response: No

Request: Query: recorded result category for COc1ccc2c(c1OC)C(=O)O[C@H]2[C@H]1c2c(cc3c(c2OC)OCO3)CCN1C in this test
Response: No

Request: What call does the record list for COc1ccn2c(C(C)=O)cc(C(=O)c3ccc4c(c3)Sc3ccccc3N4)c2c1 ?
Response: Yes

Request: Record request — test call for Cc1ccc(S(=O)(=O)Oc2ccc(NC(=O)c3ccc(Cl)cc3)cc2)cc1
Response: No

Request: Just curious, what result did N#CC1=C(N)Oc2c(sc3c(Br)cccc23)C1c1ccc(Br)cc1 (stereo not given) get here?
Response: Yes

---

Test system: SF-539 CNS
Test: NCI-60 one-dose screen, 48 h (100 = growth as untreated, 0 = no growth, -100 = all killed)
Settings: 10 µM unless noted
About 83,000 compounds went through this panel and 20% of them were active in at least one assay; those are over-represented in the sample as a whole.
endpoint-label: growth (%)
Report the figure in % without appending any unit label.

Request: Please look at Cc1ccc(C(=O)NN2C(=O)CSC2c2cccc([N+](=O)[O-])c2)cn1 (configuration not stated) and tell me its recorded growth on SF-539 CNS.
Response: 106

Request: Give SF-539 CNS growth for the following compound: CC(=O)N1N=C(c2ccc(Nc3nc(Nc4ccc(F)cc4)nc(Nc4ccc(Cl)cc4)n3)cc2)CC1c1ccc(Cl)cc1 (configuration not stated)
Response: 109

Request: Report value: growth, system: SF-539 CNS, compound: O=CN1N=C(c2ccc(Nc3ccnc4cc(Cl)ccc34)cc2)CC1c1ccccc1 (configuration not stated)
Response: 25.9

Request: # assay system SF-539 CNS: give growth of COc1ccc(OC)c(/C=C/c2nnc(Nc3ccccc3)o2)c1
Response: 103

Request: Fill: growth (SF-539 CNS) for this compound CCCCCCCCCCCCCCCCCC1OCC(COC(=O)O[C@]2(CC)C(=O)OCc3c2cc2n(c3=O)Cc3cc4ccccc4nc3-2)O1 (some centres not stated)
Response: 68.1

Request: Please look at COc1ccc(-c2nc(NN)c3c(C)nn(-c4ccc(F)cc4)c3n2)cc1 and tell me its recorded growth on SF-539 CNS.
Response: 36.2

Request: Give growth only, for O=C(N/N=C/[C@H](O)[C@H](O)[C@H](O)CO)c1ccc(NC(=O)c2cccnc2)cc1 , using SF-539 CNS data.
Response: 98.5

Request: Write down the reported growth (system: SF-539 CNS) of CCCCNC(=O)Oc1ccc(/C(=C(\C)c2ccc(Cl)cc2)c2ccc(OCCN3CCCCC3)cc2)cc1
Response: 71.7

Request: Report value: growth, system: SF-539 CNS, compound: Cc1ccc2c(n1)C(=O)C(Cl)=C(Nc1ccccc1C(C)C)C2=O
Response: 65.9

Request: With SF-539 CNS as the test system, provide measured growth for this compound: CCc1cccc2c1S/C(=C/c1ccc(OC)cc1)C2=O
Response: 8.87

Request: # assay system SF-539 CNS: give growth of CCN1C(=O)N(CC)C2Nn3c(s/c(=C4\C(=O)N(CC(C)C)c5ccccc54)c3=O)=NC21 (configuration not stated)
Response: 7.6

Request: GET growth where system = SF-539 CNS and item = O=C(Nc1ccc(Br)cc1F)c1cc(Br)ccc1O
Response: 9.41

Request: Look up and report measured growth (SF-539 CNS) for the following compound: Clc1ccc2c(c1)N(CCCN1CCCC1)c1ccccc1S2
Response: 15.3

Request: Retrieve growth on SF-539 CNS; query NCCCNc1nc2ccccc2c2c(=O)c3cc(OC(F)(F)F)ccc3sc12
Response: -72

Request: State measured growth of the compound C/C(=C\C(=O)c1ccc(Cl)cc1)c1ccc(Cl)cc1 with SF-539 CNS.
Response: 104

Request: Provide growth, recorded with SF-539 CNS, of Cc1ccc(/C=C2\Oc3ccc(O)c(O)c3C2=O)cc1
Response: 32.7

Request: Provide measured growth on SF-539 CNS for C=C(C)C1CCC2(C)OC2C1 (configuration not stated) please.
Response: 103

Request: Name the value of growth reported for COc1ccc(-c2cnc3ccccc3n2)cc1 when tested on SF-539 CNS.
Response: 90.6

Request: Check SF-539 CNS data and give growth for Cc1cc(O)c(C2=NN(c3ccc(S(N)(=O)=O)cc3)C(c3ccccc3O)C2)cc1Cl (configuration not stated) .
Response: -21.2

Request: Provide the reported growth (system: SF-539 CNS) for CCOc1ccc2nc(SCc3nc4n(n3)S(=O)(=O)c3ccccc3N4C)sc2c1
Response: 8.46

Request: System SF-539 CNS. Read-out growth. Item c1ccc(-c2nc3sc(-c4ccccc4)cn3n2)cc1 . Report value.
Response: 98.7

Request: Would you please give the reported growth of Cc1cc2[nH]c(=O)c3c4ncccc4cn3c2cc1C with SF-539 CNS?
Response: 26.7

---

Test system: KM12 colon
Assay: NCI-60 one-dose screen, 48 h (100 = growth as untreated, 0 = no growth, -100 = all killed)
Settings: 10 µM unless noted
The panel holds about 83,000 compounds, 20% with a hit somewhere; the sample as a whole holds those more often.
Range-based classes on measured growth: lower (below 40%), middle (40% to below 90%), upper (90% or more)

Request: Class label required: O=C(Oc1cccc2ccccc12)Oc1cccc2ccccc12
Response: upper

Request: Which growth band matches Cc1ccc(C(CC(=O)O)c2c(C)[nH][nH]c2=O)cc1 (stereo unspecified) ?
Response: upper

Request: Lab note: which band did C(=N/Nc1ncnc2nc[nH]c12)/c1ccccn1 land in?
Response: lower

Request: Category of O=C(/C=C/c1sc(Cl)nc1Cl)c1ccc(F)cc1 :
Response: middle

Request: Category of COc1cccc2c(=O)c3c(sc12)c(N1CCNCC1)nc1ccccc13 :
Response: middle

Request: Kindly identify the class of FC(F)(F)c1cc(Nc2ccc3c(OCCCN4CCOCC4)cccc3n2)ccc1Cl .
Response: lower

Request: Category of CCCCC1CCCC12NC(=O)NC2=O (stereo unspecified) , please.
Response: upper

Request: Bin this entry: COC1=C(C)C(=O)c2c(c(CCCl)c3n2CCC3O)C1=O (stereo unspecified)
Response: lower

Request: Looking at CCN1C(=O)N(CC)C2Nn3c(s/c(=C4\C(=O)N(CCC(C)C)c5ccccc54)c3=O)=NC21 (stereo unspecified) , which class would you pick?
Response: middle

---

Tested on: SF-539 CNS
Experiment: NCI-60 one-dose screen, 48 h (100 = growth as untreated, 0 = no growth, -100 = all killed)
Conditions: 10 µM unless noted
The panel holds about 83,000 compounds, 20% with a hit somewhere; the sample as a whole holds those more often.
Mark Satisfied for reported growth of 40% or greater; mark Not satisfied for anything smaller.

Request: I'd appreciate it if you could say whether COc1ccc([C@H]2c3cc(OC)c(OC)cc3C=C(C=O)C2CO)cc1OC (stereo not given in full) has growth at least equal to 40%.
Response: Not satisfied

Request: For this compound, is measured growth 40% or higher? CCCCCCCCCCCCCCCCCCOc1ccccc1CC(=O)OCC[N+](CC)(CC)CC
Response: Not satisfied

Request: Check if growth >= 40% (inclusive). Item: C#C[C@]1(O)CC[C@H]2[C@@H]3CC=C4c5sc(Nc6ccccc6)nc5CC[C@]4(C)[C@H]3CC[C@@]21C
Response: Not satisfied

Request: Quick check: does NCCOc1ncccc1/C=C1\C2C=CC=CC2C2C=CC(F)=CC12 (stereo not given) have growth greater than or equal to 40%?
Response: Not satisfied

Request: Please indicate if the recorded growth for COc1ccc(CNC(=O)[C@H](O)[C@@H](N)Cc2ccccc2)cc1 meets or exceeds 40%.
Response: Satisfied

Measured values drawn from PubChem BioAssay (NCI) for this set.
